Target: glucokinase (GK) enzyme (Homo sapiens, UniProt P35557)
Sequence (P35557 1-465): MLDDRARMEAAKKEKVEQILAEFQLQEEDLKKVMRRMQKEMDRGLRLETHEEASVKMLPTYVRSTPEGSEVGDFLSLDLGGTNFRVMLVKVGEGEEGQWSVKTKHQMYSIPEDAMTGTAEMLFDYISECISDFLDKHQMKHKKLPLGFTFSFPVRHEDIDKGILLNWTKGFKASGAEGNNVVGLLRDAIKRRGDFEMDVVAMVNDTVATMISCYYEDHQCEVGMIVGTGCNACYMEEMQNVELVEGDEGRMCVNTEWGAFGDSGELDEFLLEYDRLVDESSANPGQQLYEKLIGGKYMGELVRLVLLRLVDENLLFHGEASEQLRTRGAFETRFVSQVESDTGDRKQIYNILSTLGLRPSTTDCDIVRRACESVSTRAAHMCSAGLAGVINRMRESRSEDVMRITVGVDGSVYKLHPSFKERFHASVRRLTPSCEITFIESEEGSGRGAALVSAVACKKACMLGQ
Test: In-vitro glucokinase (GK) activation assay (coupled with glucose-6-phosphate dehydrogenase, absorbance at 340)
Type: biochemical
Conditions: 0.1 uM compound; glucose 2.5 mM; read-out: % of GK activity wrt DMSO
Experimental: The compound of the invention was incubated with glucokinase (GK) enzyme (0.2 units) for 10 minutes in assay buffer at 26° C. After incubation, addition of glucose-6-phosphate dehydrogenase (2.5 units), ATP (1 mM) and glucose (2.5 mM). Absorbance is measured at 340 nm for 15 minutes with 10 second interval using UV transparent plate in kinetic mode on Spectramax-190 at 30° C.
Below is a list of entries, each paired with its recorded activity at 0.1 µM value.
Report only the number, with the unit % understood.

Here are 5 molecules together with their reported answers.
CC(C)Cc1nnc(-c2ccc(Oc3cc(OC4CCN(C)C4=O)cc(C(=O)Nc4nccs4)c3)cc2)o1 (stereo not shown)
131
Cc1nnc(-c2ccc(Oc3cc(OC4CCN(C)C4=O)cc(C(=O)Nc4nc(CC(=O)O)cs4)c3)cc2)o1 (stereo not shown)
148
CCOC(=O)c1csc(NC(=O)c2cc(Oc3ccc(-c4nnc(C)o4)cc3)cc(OC3CCN(C)C3=O)c2)n1 (stereo not shown)
109
Cc1nnc(-c2ccc(Oc3cc(OC4CCN(C)C4=O)cc(C(=O)Nc4nnc(C5CC5)s4)c3)cc2)o1 (stereo not shown)
134
Cc1nnc(-c2ccc(Oc3cc(OC4CCN(C)C4=O)cc(C(=O)Nc4ncccc4O)c3)cc2)o1 (stereo not shown)
151

For the molecule Cc1nnc(-c2ccc(Oc3cc(OC4CCN(C(C)C)C4=O)cc(C(=O)Nc4nccs4)c3)cc2)o1 (stereo not shown) , what activity at 0.1 µM is on record?
125

What do you have for "Cc1nnc(-c2ccc(Oc3cc(O[C@@H]4CCN(C)C4=O)cc(C(=O)Nc4nccs4)c3)cc2)o1" ?
112
